# credit: patent US20230159511A1

- assayed.system: human KEAP1 (N-term, residues 321-609) (Homo sapiens, UniProt Q14145)
- Construct: human KEAP1 (N-term, residues 321-609)
- Sequence (Q14145 321-609): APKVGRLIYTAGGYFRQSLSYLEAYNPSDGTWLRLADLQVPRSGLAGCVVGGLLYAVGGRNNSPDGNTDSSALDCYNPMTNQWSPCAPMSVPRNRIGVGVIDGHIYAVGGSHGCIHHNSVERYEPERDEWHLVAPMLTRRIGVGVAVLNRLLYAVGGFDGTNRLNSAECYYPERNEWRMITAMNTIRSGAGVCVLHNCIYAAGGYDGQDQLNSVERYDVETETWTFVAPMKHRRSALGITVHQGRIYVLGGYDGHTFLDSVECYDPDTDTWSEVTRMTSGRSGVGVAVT
- protocol.text: KEAP1 Kelch Fluorescence Polarization (FP) Assay
- condition.info: inhibition of Kelch domain-NRF2 interaction; 2 nM FITC-labelled NRF2 peptide, 25 nM KEAP1, 1 h room temperature; compounds below 10 nM cannot be differentiated
pIC50: −log10 of the molar value.

[
  {
    "compound": "CNC(=O)[C@H]1CCCC[C@H]1C(=O)N1CCc2c(Cl)ccc(OCCc3cn(C)nn3)c2[C@H]1CN1CCCC1=O [Example 66]",
    "pIC50": 6.82
  },
  {
    "compound": "CNC(=O)N1CCC[C@H]1C(=O)N1CCc2c(Cl)ccc(OCc3nnn(C)c3C(F)F)c2[C@H]1CN1CCCC1=O [Example 67]",
    "pIC50": 7.54
  },
  {
    "compound": "Cc1cc(C(=O)NCCOc2cccc3c2[C@@H](CN2C(=O)c4ccccc4C2=O)N(C(=O)[C@@H]2CCCC[C@@H]2C(=O)N2CC(O)C2)CC3)no1 [Example 8]",
    "pIC50": 5.89
  },
  {
    "compound": "CNC(=O)[C@H]1CCCC[C@H]1C(=O)N1CCc2c(Cl)ccc(OCc3ccccn3)c2[C@H]1CN1CCCC1=O [Example 63]",
    "pIC50": 6.47
  },
  {
    "compound": "CNC(=O)[C@H]1CCCC[C@H]1C(=O)N1CCc2c(Cl)ccc(OCc3noc(C(C)C)n3)c2[C@H]1CN1CCCC1=O [Example 57]",
    "pIC50": 6.95
  },
  {
    "compound": "O=C(NCC(F)(F)F)[C@H]1CCCC[C@H]1C(=O)N1CCc2cccc(O[C@H]3CCN(C(=O)c4cncs4)C3)c2[C@H]1CN1C(=O)c2ccccc2C1=O [Example 32]",
    "pIC50": 5.68
  }
]

---

The entries below come with measured IC50 values attached.
- assayed.system: human KEAP1 (N-term, residues 321-609) (Homo sapiens)
- Construct: human KEAP1 (N-term, residues 321-609)
- protocol.text: KEAP1 Kelch Fluorescence Polarization (FP) Assay
- condition.info: inhibition of Kelch domain-NRF2 interaction; 2 nM FITC-labelled NRF2 peptide, 25 nM KEAP1, 1 h room temperature; compounds below 10 nM cannot be differentiated

[
  {
    "molecule": "Cc1cc(C(=O)NCCOc2cccc3c2[C@@H](CN2C(=O)c4ccccc4C2=O)N(C(=O)[C@@H]2CCCC[C@@H]2C(=O)NC2CCC2)CC3)no1 [Example 9]",
    "output.unit": "nM",
    "IC50": 119
  },
  {
    "molecule": "CNC(=O)C1OCCC1C(=O)N1CCc2c(Cl)ccc(OCc3nnn(C)c3C(F)F)c2[C@H]1CN1CCCC1=O (single isomer, unassigned) [Example 82]",
    "output.unit": "nM",
    "IC50": 4070
  },
  {
    "molecule": "CNC(=O)[C@H]1CCCC[C@H]1C(=O)N1CCc2cccc(O[C@H]3CCN(C(=O)c4cc(C)on4)C3)c2[C@H]1CN1C(=O)c2ccccc2C1=O [Example 20]",
    "output.unit": "nM",
    "IC50": 29
  }
]

---

- System: NRF2 mediated gene NAD(P)H:quinone acceptor oxidoreductase 1 (NQO1) in BEAS-2B cells
- protocol.text: Beas2B NQO1 mRNA Cell Based Assay
- Set-up: species or system human
- condition.info: Homo sapiens; BEAS-2B cells, compound for 24 h; increase in NQO1 mRNA compared to vehicle (0.1% DMSO) control; read-out: EC50
- Experimental: Beas2B NQO1 mRNA Cell Based Assay The up regulation of the NRF2 mediated gene NAD(P)H:quinone acceptor oxidoreductase 1 (NQO1) was measured using the following assay method: BEAS-2B cells (ATCC CRL-9609) were plated in 96-well clear plates at 20,000 cells/well in 75 μL of cell culture media and incubated overnight (37° C., 5% CO2). On day 2, 25 μL of compound or controls were added to the cells for 24 h. […]
readout.kind: log10(EC50) (log10 of the value in µM)

[
  {
    "molecule": "CNC(=O)[C@H]1CCCC[C@H]1C(=O)N1CCc2c(Cl)ccc(OCc3cn(C)nn3)c2[C@H]1CN1CCCC1=O",
    "log10(EC50)": -0.48
  },
  {
    "molecule": "CNC(=O)[C@@]1(C)CCC[C@H]1C(=O)N1CCc2c(Cl)ccc(OCc3nnn(C)c3C(F)F)c2[C@H]1CN1CCCC1=O",
    "log10(EC50)": -0.48
  },
  {
    "molecule": "CNC(=O)C1CCCC1C(=O)N1CCc2c(Cl)ccc(OCc3nnn(C)c3C(F)F)c2[C@H]1CN1CCCC1=O (single isomer, unassigned)",
    "log10(EC50)": 0.27
  },
  {
    "molecule": "CNC(=O)[C@H]1CCCC[C@H]1C(=O)N1CCc2c(Cl)ccc(OCc3cncnc3)c2[C@H]1CN1CCCC1=O",
    "log10(EC50)": 0.76
  },
  {
    "molecule": "CNC(=O)[C@H]1CCCC[C@H]1C(=O)N1CCc2cccc(O[C@H]3CCN(C(=O)c4cncs4)C3)c2[C@H]1CN1C(=O)c2ccccc2C1=O",
    "log10(EC50)": 0.49
  }
]

---

- assayed.system: human KEAP1 (N-term, residues 321-609) (Homo sapiens, UniProt Q14145)
- Construct: human KEAP1 (N-term, residues 321-609)
- protocol.text: KEAP1 Kelch Fluorescence Polarization (FP) Assay
- condition.info: inhibition of Kelch domain-NRF2 interaction; 2 nM FITC-labelled NRF2 peptide, 25 nM KEAP1, 1 h room temperature; compounds below 10 nM cannot be differentiated

[
  {
    "smiles.string": "CNC(=O)[C@H]1CCCC[C@H]1C(=O)N1CCc2cccc(OCCNC(=O)c3nccs3)c2[C@H]1CN1C(=O)c2ccccc2C1=O",
    "assayed.system": "human KEAP1 (N-term, residues 321-609) (Homo sapiens, UniProt Q14145)",
    "output.unit": "nM",
    "IC50": 119
  },
  {
    "smiles.string": "CNC(=O)[C@@]1(C)CCCC[C@H]1C(=O)N1CCc2c(Cl)ccc(OCc3noc4ccccc34)c2[C@H]1CN1CCCC1=O",
    "assayed.system": "human KEAP1 (N-term, residues 321-609) (Homo sapiens, UniProt Q14145)",
    "output.unit": "nM",
    "IC50": 12
  },
  {
    "smiles.string": "CNC(=O)[C@H]1CCCC[C@H]1C(=O)N1CCc2cccc(O[C@H]3CCN(C(C)=O)C3)c2[C@H]1CN1C(=O)c2ccccc2C1=O",
    "assayed.system": "human KEAP1 (N-term, residues 321-609) (Homo sapiens, UniProt Q14145)",
    "output.unit": "nM",
    "IC50": 147
  },
  {
    "smiles.string": "CNC(=O)[C@@]1(C)CCCC[C@H]1C(=O)N1CCc2c(Cl)ccc(OCc3cn(C)nn3)c2[C@H]1CN1CC2(CC2)CC1=O",
    "assayed.system": "human KEAP1 (N-term, residues 321-609) (Homo sapiens, UniProt Q14145)",
    "output.unit": "nM",
    "IC50": 12
  },
  {
    "smiles.string": "CNC(=O)[C@@]1(C)CCCC[C@H]1C(=O)N1CCc2c(Cl)cc(F)c(OCc3cn(C)nn3)c2[C@H]1CN1CC2(CC2)CC1=O",
    "assayed.system": "human KEAP1 (N-term, residues 321-609) (Homo sapiens, UniProt Q14145)",
    "output.unit": "nM",
    "IC50": 7.1
  },
  {
    "smiles.string": "CNC(=O)[C@@]1(C)CCCC[C@H]1C(=O)N1CCc2c(Cl)ccc(OCc3nnn(C)c3C3CC3)c2[C@H]1CN1C[C@H](C)CC1=O",
    "assayed.system": "human KEAP1 (N-term, residues 321-609) (Homo sapiens, UniProt Q14145)",
    "output.unit": "nM",
    "IC50": 10.9
  },
  {
    "smiles.string": "CNC(=O)[C@H]1CCCC[C@H]1C(=O)N1CCc2cccc(OCc3ccn[nH]3)c2[C@H]1CN1C(=O)c2ccccc2C1=O",
    "assayed.system": "human KEAP1 (N-term, residues 321-609) (Homo sapiens, UniProt Q14145)",
    "output.unit": "nM",
    "IC50": 3010
  },
  {
    "smiles.string": "CNC(=O)[C@H]1CCCC[C@H]1C(=O)N1CCc2c(Cl)ccc(OCc3cn(C)nn3)c2[C@H]1CN1CCCC1=O",
    "assayed.system": "human KEAP1 (N-term, residues 321-609) (Homo sapiens, UniProt Q14145)",
    "output.unit": "nM",
    "IC50": 16
  },
  {
    "smiles.string": "CNC(=O)[C@H]1CCCC[C@H]1C(=O)N1CCc2c(Cl)ccc(OCc3cnccn3)c2[C@H]1CN1CCCC1=O",
    "assayed.system": "human KEAP1 (N-term, residues 321-609) (Homo sapiens, UniProt Q14145)",
    "output.unit": "nM",
    "IC50": 82
  },
  {
    "smiles.string": "COC(=O)N1CCC[C@H]1C(=O)N1CCc2cccc(O[C@H]3CCN(C(=O)c4cncs4)C3)c2[C@H]1CN1C(=O)c2ccccc2C1=O",
    "assayed.system": "human KEAP1 (N-term, residues 321-609) (Homo sapiens, UniProt Q14145)",
    "output.unit": "nM",
    "IC50": 1700
  },
  {
    "smiles.string": "CNC(=O)C[C@@H](C)C(=O)N1CCc2cccc(O[C@H]3CCN(C(=O)c4cncs4)C3)c2[C@H]1CN1C(=O)c2ccccc2C1=O",
    "assayed.system": "human KEAP1 (N-term, residues 321-609) (Homo sapiens, UniProt Q14145)",
    "output.unit": "nM",
    "IC50": 292
  },
  {
    "smiles.string": "N#CCNC(=O)[C@H]1CCCC[C@H]1C(=O)N1CCc2cccc(O[C@H]3CCN(C(=O)c4cncs4)C3)c2[C@H]1CN1C(=O)c2ccccc2C1=O",
    "assayed.system": "human KEAP1 (N-term, residues 321-609) (Homo sapiens, UniProt Q14145)",
    "output.unit": "nM",
    "IC50": 1510
  },
  {
    "smiles.string": "CNC(=O)[C@@]1(C)CCCC[C@H]1C(=O)N1CCc2c(Cl)cc(F)c(OCc3nnn(C)c3C(F)F)c2[C@H]1CN1CCOCC1=O",
    "assayed.system": "human KEAP1 (N-term, residues 321-609) (Homo sapiens, UniProt Q14145)",
    "output.unit": "nM",
    "IC50": 7.3
  }
]
